measurementProtocol: Compound solubility in water
appliedConditions: water, Compound Solubility in Water
endpointName: log10(solubility) (log10 of the value in µg/mL)
Use the decimal logarithm of solubility (µg/mL).

>>> print(df.to_string())
                                   compound       endpointname  datavalue
0  Cc1cc(C)n2ccc(C(=O)Nc3ccc4c(c3)C(Oc3cc(C)on3)CC4)c2n1 (stereo not drawn)  log10(solubility)      -1.10

Using the record for CCCO[C@H]1CC[C@H](NC(=O)c2ccn3c(C)cc(Cl)nc23)CC1 , report its log10(solubility).
1.03

Using the record for Cc1cc(C2CC2)n2ccc(C(=O)N[C@H]3CC[C@H](OCCCC(F)(F)F)CC3)c2n1 , report its log10(solubility).
0.23

----------
systemName: glucocerebrosidase (Gcase) (Homo sapiens, UniProt P04062)
Construct: micellar solution containing 10 nM GCase and 100 nM saposin C
Sequence (P04062 40-536): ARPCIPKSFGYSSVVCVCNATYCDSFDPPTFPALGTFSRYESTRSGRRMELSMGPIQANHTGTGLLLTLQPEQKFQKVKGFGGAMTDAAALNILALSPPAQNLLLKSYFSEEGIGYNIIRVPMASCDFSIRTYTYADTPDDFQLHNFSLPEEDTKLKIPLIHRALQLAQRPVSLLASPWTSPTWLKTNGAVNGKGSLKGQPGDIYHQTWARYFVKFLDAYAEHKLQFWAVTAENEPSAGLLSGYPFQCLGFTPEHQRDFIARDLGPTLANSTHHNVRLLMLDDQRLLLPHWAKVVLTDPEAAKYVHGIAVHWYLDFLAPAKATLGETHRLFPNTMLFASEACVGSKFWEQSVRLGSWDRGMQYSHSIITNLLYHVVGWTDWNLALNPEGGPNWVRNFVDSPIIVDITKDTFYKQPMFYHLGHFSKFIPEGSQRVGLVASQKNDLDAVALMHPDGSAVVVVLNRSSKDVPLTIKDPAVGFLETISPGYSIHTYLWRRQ
measurementProtocol: Glucocerebrosidase (Gcase) activation assay, 4-methylumbelliferyl-beta-D-glucopyranoside substrate, fluorescence readout
Type: biochemical
appliedConditions: test compound at 1.0 μM; read-out: Percent Gcase Activation, 1 μM Test Compound
This section presents molecules with their documented activation at 1 µM values.

Answered cases to consult:
>>> print(df.to_string())
                                   molecule        endpointname  datavalue
0  Cc1cc(C)n2ccc(C(=O)NC3CCC(c4ncco4)CC3)c2n1 (stereo not shown)  activation at 1 µM      < 30%
1  Cc1cc(C)n2ccc(C(=O)N[C@H]3CC[C@H](OC4CC4)CC3)c2n1  activation at 1 µM      > 60%

Using the record for CCCCO[C@H]1CC[C@H](NC(=O)c2ccn3c(C)cc(C(F)F)nc23)CC1 , report its activation at 1 µM.
> 60%

Using the record for Cc1ccnc2c(C(=O)NC3(C)CCCc4ccccc43)ccn12 (stereo not shown) , report its activation at 1 µM.
> 60%

Using the record for COCC#Cc1ccc(NC(=O)c2ccn3c(C)cc(C)nc23)cn1 , report its activation at 1 µM.
30 to 60%

Using the record for Cc1cc(C)n2ccc(C(=O)NC3CCOc4c(F)ccc(F)c43)c2n1 (stereo not shown) , report its activation at 1 µM.
> 60%

Using the record for CCC(F)(F)CN1CCC(NC(=O)c2ccn3c(C)cc(C)nc23)C1 (stereo not shown) , report its activation at 1 µM.
< 30%

Using the record for Cc1cc(C)n2ccc(C(=O)NC3CCOc4cc(F)ccc43)c2n1 (stereo not shown) , report its activation at 1 µM.
> 60%

Using the record for CCCCCO[C@H]1CC[C@H](NC(=O)c2ccn3c(C)cc(C)nc23)CC1 , report its activation at 1 µM.
> 60%

Using the record for C#Cc1ccc(NC(=O)c2ccn3c(C)cc(C)nc23)c(OCCOC)c1 , report its activation at 1 µM.
> 60%

Using the record for Cc1cc(C)n2ccc(C(=O)NC3CCC4(CCCO4)c4ccccc43)c2n1 (stereo not shown) , report its activation at 1 µM.
> 60%

Using the record for Cc1cc(C(F)F)nc2c(C(=O)NC3CCCc4ccccc43)ccn12 (stereo not shown) , report its activation at 1 µM.
> 60%

Using the record for CCOCCO[C@H]1CC[C@H](NC(=O)c2ccn3c(C)cc(C)nc23)CC1 , report its activation at 1 µM.
< 30%

Using the record for COc1cc(NC(=O)c2ccn3c(C)cc(C)nc23)ccc1-c1cocn1 , report its activation at 1 µM.
> 60%

Using the record for Cc1ccnc2c(C(=O)Nc3ccc(-c4ncco4)cc3)ccn12 , report its activation at 1 µM.
> 60%

Using the record for CC[C@@H](NC(=O)c1ccn2c(C)cc(C)nc12)c1ccccc1 , report its activation at 1 µM.
> 60%

Using the record for COCc1cc(C(F)F)nc2c(C(=O)NC3(C)CCOc4cc(F)c(F)cc43)ccn12 (stereo not shown) , report its activation at 1 µM.
> 60%
